Below, each of the compounds is paired with its reported %Inh value.
# Test system: ERBB3
# TEST_PARAMETERS: concentration: 1 μM, replicates: in singlicate; n = 1
State just the number; it will be interpreted in %.

CN1C(=O)C(Nc2cc(Cl)c(O)c(Cl)c2)=C(c2ccc(Cl)cc2)C1=O; 0
CCS(=O)(=O)c1ccc(OC)c(Nc2ncc(-c3ccc(F)cc3)o2)c1.Cl; 0
COc1ccc(Nc2nccc(N3CCC(NS(=O)(=O)c4ccc(NC(C)=O)cc4)C3)n2)cc1 (stereo not drawn); 18
COc1cc(OC)cc(-c2cc3cnc(N)nc3nc2NC(=O)NC(C)(C)C)c1; 0
CCc1nc(-c2cccc(C)c2)c(-c2ccncc2)s1; 0
Cc1nc(N(C)[C@H]2CN(C(=O)CC#N)CC[C@H]2C)c2cc[nH]c2n1; 0
COc1cc2nccc(Nc3ccc(OCc4ccc(NC(C)=O)cc4)cc3)c2cc1OC.Cl; 40
Nc1ncnc2c1ncn2-c1cccc2ccccc12; 26
Cl.c1ccc(Cn2cnc3cc(Nc4ncnc5ccccc45)ccc32)cc1; 0
Nc1n[nH]c2nnc(-c3ccccc3)c(-c3ccccc3)c12; 16

%Inh reading for C[C@@H]1CC[C@H](C(=O)NC2CCCCC2)CN1c1cc(-c2ccc3c(N)n[nH]c3c2)nc(N)n1 : 0

Record COc1cc2ncn(-c3cc(OCCCc4ccccc4)c(C(N)=O)s3)c2cc1OC , field %Inh: 0

Please fill in: %Inh reported for COc1cccc(-n2cnc3c(N)ncnc32)c1 = 46

%Inh measured on Cl.NS(=O)(=O)c1cccc(Nc2cc(-c3ccc(F)cc3)n[nH]2)c1 = 17

Reported %Inh for Nc1ncnc2c1ncn2-c1ccc(Cl)cc1 was 1

###

# Test system: DLK
# Construct: gene MAP3K12
# TEST_PARAMETERS: concentration: 1 μM, replicates: in singlicate; n = 1
Parameter %Inh: see the listing below.
Please give a number only; it is taken to be in %.

See these solved cases before continuing.
COc1cccc(C2=C(N(C)c3ccccc3)C(=O)NC2=O)c1; 4
Nc1n[nH]c2ncc(-c3ccccc3)cc12; 27
COc1cc(OC)cc(-c2cc3cnc(N)nc3nc2NC(=O)NC(C)(C)C)c1; 4

Documented %Inh of COC(=O)c1c(-c2ccccc2)c2cc(C)ccc2c(=O)n1Cc1ccccc1 : 0

For record CN1C(=O)C(Nc2cc(Cl)c(O)c(Cl)c2)=C(c2ccc(Cl)cc2)C1=O the listed %Inh is 33

###

# System: PFTK1
# Construct: gene CDK14
# TEST_PARAMETERS: concentration: 1 μM, replicates: in singlicate; n = 1
ATTRIBUTE_MEASURED: %Inh (%)
Express it in %; write the number only.

Nc1nc(-c2ccccc2F)c(-c2ccnc3ccccc23)s1; 5

For reference, reported %Inh for O=C1NC(=O)C(c2ccccc2)=C1Nc1cccc(O)c1 stands at 0

The compound listed as COc1cc2nccc(Nc3cccc(Oc4ccccc4)c3)c2cc1OC.Cl has a reported %Inh of 2

Noted for Cc1c(Cn2c(C)nn3c(=O)cc(N4CCO[C@H](C)C4)nc23)cccc1C(F)(F)F : its %Inh reads 11

The reported %Inh of the compound Cc1ccc(-c2ccc3c(ccc4sc5c(c43)NC[C@@H](C)N=C5N(C)C)n2)cn1 was 0

###

Examples of compounds with documented %Inh follow.
# Test system: CDKL1
# TEST_PARAMETERS: concentration: 1 μM, replicates: in singlicate; n = 1
Reply with the number and its unit after it.

Cc1nn2c(=O)cc(N3CCOCC3)nc2n1Cc1cccc(Cl)c1Cl; 0%

get_value(item= Nc1n[nH]c2nnc(-c3ccccc3)c(-c3ccccc3)c12 , readout=%Inh) returns 0%

Please fill in: %Inh reported for CCC(=O)c1c(-c2ccccc2)c2cc(Cl)ccc2c(=O)n1Cc1cc(S(C)(=O)=O)n(CC(N)=O)n1 = 23%

Sure, the documented %Inh for COc1cc2nccc(Nc3cccc(Oc4ccccc4)c3)c2cc1OC.Cl is 9%

What the record says about Nc1ncnc2c1ncn2-c1cccc2ccccc12 : %Inh is 33%

Record Nc1ncnc2c1ncn2-c1cccc(F)c1 . Reported %Inh: 0%

###

# Tested on: PIP5K2B
# TEST_PARAMETERS: concentration: 1 μM, replicates: in singlicate; n = 1
ATTRIBUTE_MEASURED: %Inh (%)
Record the value in %, omitting the unit from your answer.

Consider the following illustrative entries.
CN1C(=O)C(Nc2cc(Cl)c(O)c(Cl)c2)=C(c2ccc(Cl)cc2)C1=O [SB-404321]; 0
O=C(NCCNc1ccnc(Nc2ccc(F)cc2)n1)Nc1ccc2c(c1)OCO2 [GSK1379882]; 0
COc1cc2ncn(-c3cc(OCCCc4ccccc4)c(C(N)=O)s3)c2cc1OC [GSK205189]; 0
CCC(=O)c1c(-c2ccccc2)c2cc(Cl)ccc2c(=O)n1Cc1cc(S(C)(=O)=O)n(CCC(C)(C)O)n1; 20
COc1cccc(-n2cnc3c(N)ncnc32)c1 [SKF-97416]; 0

Short answer for CCC(=O)c1c(-c2ccccc2)c2cc(Cl)ccc2c(=O)n1Cc1cc(S(C)(=O)=O)n(CC(F)F)n1 : %Inh was 0

get_value(item= O=C1NC(=O)C(c2ccccc2)=C1Nc1cccc(O)c1 [SB-390534] , readout=%Inh) returns 13

For Cc1ccc(Oc2ccc(Nc3ncnc4cc[nH]c34)cc2C)cn1 the compound record lists %Inh as 0

The measured %Inh associated with FC(F)(F)c1ccc(-c2ncn(CCCN3CCOCC3)c2-c2ccncc2)cc1 [SB-217780] reads 0

###

# Tested on: DAPK3
# TEST_PARAMETERS: concentration: 1 μM, replicates: in singlicate; n = 1
Classification field: Condition met = %Inh at or over 1%; Condition not met = %Inh under 1%.

Reference set, count: 5
O=C(NCCNc1ccnc(Nc2ccc(F)cc2)n1)Nc1ccc2c(c1)OCO2 [GSK1379882]; Condition met
Nc1ncnc2c1ncn2-c1cccc(F)c1 [SKF-97560]; Condition met
Cl.NS(=O)(=O)c1cccc(Nc2cc(-c3ccc(F)cc3)n[nH]2)c1 [GW824645]; Condition not met
Cc1nc(N(C)[C@H]2CN(C(=O)CC#N)CC[C@H]2C)c2cc[nH]c2n1; Condition not met
Nc1nccc2scc(-c3ccc4c(c3)CCN4C(=O)Cc3ccccc3)c12 [GSK2576924]; Condition met

Decide: is the reported value of %Inh for Cc1nnc(-c2ccc3ncn(-c4ccc(S(C)=O)cc4)c3c2)o1 (stereo not drawn) equal to or greater than 1%? Condition not met

Dear colleague, could you confirm whether CN1C(=O)C(Nc2cc(Cl)c(O)c(Cl)c2)=C(c2ccc(Cl)cc2)C1=O [SB-404321] has %Inh at or above 1%? Condition not met

Record O=C(Nc1n[nH]c2nc(-c3ccccc3)c(Cl)cc12)C1CC1 [SB-734909] ; criterion: %Inh no lower than 1%. Met? Condition not met

Please indicate if the recorded %Inh for CCC(=O)c1c(-c2ccccc2)c2cc(Cl)ccc2c(=O)n1Cc1cc(S(C)(=O)=O)n(CC(F)F)n1 meets or exceeds 1%. Condition not met

%Inh >= 1% for COc1ccc(CNC(=O)NC2CCN(c3ccnc(Nc4ccc(F)cc4)n3)C2)cc1 (stereo not drawn) [GSK1379706] ? Condition met

Is it the case that O=C(Nc1n[nH]c2nc(-c3ccccc3)c(Br)cc12)C1CC1 [SB-708998] has %Inh reaching or exceeding 1%? Condition not met

###

# System: ERK5;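 further: kd values determined as follow-up on hits from a single-replicate KINOMEscan panel screen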
# Construct: gene MAPK7
ATTRIBUTE_MEASURED: Kd

// recorded Kd for O=C(Nc1n[nH]c2nc(-c3ccccc3)c(Br)cc12)C1CC1 : > 10 µM

###

# System: ULK2
# TEST_PARAMETERS: concentration: 1 μM, replicates: in singlicate; n = 1
ATTRIBUTE_MEASURED: %Inh (%)
Entry rule: numbers only, all in %.

O=C(NCCNc1ccnc(Nc2ccc(F)cc2)n1)Nc1ccc2c(c1)OCO2 [GSK1379882]; 0

// sample COc1cc2ncn(-c3cc(OCc4ccncc4)c(C(N)=O)s3)c2cc1OC [GSK336313] , its %Inh was 0

Lab book: %Inh of Cc1nc(N(C)[C@H]2CN(C(=O)CC#N)CC[C@H]2C)c2cc[nH]c2n1 noted as 8

Summary for this compound, CCS(=O)(=O)c1ccc(OC)c(Nc2ncc(-c3ccc(F)cc3)o2)c1.Cl [GW591947] : %Inh is 0

Noted for COc1cc(Nc2ccnc3ccc(C(F)(F)F)cc23)cc(OC)c1OC [GW577382] : its %Inh reads 0

###

# Tested on: TIE2
# Construct: gene TEK
# TEST_PARAMETERS: concentration: 1 μM, replicates: in singlicate; n = 1
Each entry below carries its recorded %Inh.

Cc1ccc(-c2ccc3c(ccc4sc5c(c43)NC[C@@H](C)N=C5N(C)C)n2)cn1; 0%
COc1ccc(-n2cnc3c(N)ncnc32)cc1 [SKF-97236]; 18%
COc1cccc(-n2cnc3c(N)ncnc32)c1 [SKF-97416]; 0%
CCC(=O)c1c(-c2ccccc2)c2cc(Cl)ccc2c(=O)n1Cc1cc(S(C)(=O)=O)n(CC(N)=O)n1; 24%
CN1C(=O)C(Nc2cc(Cl)c(O)c(Cl)c2)=C(c2ccc(Cl)cc2)C1=O [SB-404321]; 0%
CC(C)(C)c1ccc(C(=O)Nc2cn3cc(-c4ccccc4)ccc3n2)cc1; 0%
Cn1c(=O)c(F)c(Nc2ccc(I)cc2F)c2c(=O)n(OC[C@H](O)CO)cnc21; 9%
COc1cc2ncn(-c3cc(OCc4ccc(S(C)(=O)=O)cc4)c(C(N)=O)s3)c2cc1OC [GW869979]; 0%

Lookup result for COC(=O)c1c(-c2ccccc2)c2cc(Br)ccc2c(=O)n1Cc1ccc(S(C)(=O)=O)cc1 ; measured %Inh: 3%

Consider Nc1nccc2scc(-c3ccc4c(c3)CCN4C(=O)Cc3ccccc3)c12 [GSK2576924] . Its measured %Inh is 13%

The value of %Inh measured for the molecule CCCNC(=O)Nc1ccc(Oc2ncnc3ccn(C)c23)cc1 turned out to be 7%

The molecule identified as COc1ccc(-c2cc3c(C)nc(N)nc3n([C@H]3CC[C@H](O)CC3)c2=O)cn1 registered its %Inh at 0%

Value of measured %Inh for the entry CCc1ccc(-c2ccc3c(c2)-c2nn(C)cc2S(=O)(=O)N3C)cc1 : 0%

Consider COc1ccc(-c2cc3c(C)nc(N)nc3n([C@H]3CC[C@H](OCCO)CC3)c2=O)cn1 . Its measured %Inh is 0%

Memo: O=C(Nc1ccc2c(c1)OCO2)NC1CCN(c2ccnc(NCc3ccc(F)cc3)n2)CC1 [GSK1379859] , reported %Inh: 0%

Data point: CN1C(=O)C(Nc2ccccc2)=C(c2ccccc2)C1=O [SB-300079] ; %Inh = 0%
